Each entry below carries its reported koff.
Molecular target: T1, INCENP N-terminal domain (1-58), His- and Avi-tagged, biotinylated (UniProt Q9NQS7 1-58, biotinylated (Avi-tag, co-expressed E. coli biotin ligase BirA))
T1 construct: range 1-58; Expressed in E. coli BL21(DE3); also called INC-N; INCENP N-terminal domain (AA 1-58); not shown: His-tag and Avi-tag
T1 sequence (looked up): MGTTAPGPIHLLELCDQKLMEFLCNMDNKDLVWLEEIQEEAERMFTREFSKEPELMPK
Assay: SPR, target immobilised on NTA chip via His-tag, two-fold Fab dilutions from 100 nM, 1:1 Langmuir fit
Experimental: The targets were immobilized onto a nitrilotriacetic acid (NTA) sensor chip via His-tag. 2-fold serial dilutions of the Fab were injected following ligand immobilization on the sensor chip. For each kinetic assay at least five dilutions of the Fab were tested. The data were fitted using 1:1 Langmuir Model to obtain the on-rate, off-rate and the affinity (KD) of the Fab-target interaction. (FIG. 3).
Just the number please, in s⁻¹, no unit attached.

INC-N-06 (Fab, V domains shown, also called INC-N-06 Fab) VH: EVQLVESGGGLVQPGGSLRLSCAASGFNISYSSIHWVRQAPGKGLEWVASIYPYSGSTYYADSVKGRFTISADTSKNTAYLQMNSLRAEDTAVYYCARWSLYGKWYYWWYGLDYWGQGTLVTVSS VL: DIQMTQSPSSLSASVGDRVTITCRASQSVSSAVAWYQQKPGKAPKLLIYSASSLYSGVPSRFSGSRSGTDFTLTISSLQPEDFATYYCQQGSYYPITFGQGTKVEIKR    0.0049

Shift focus to the following entry.
Form: binder = INC-N-38 (Fab, V domains shown, also called INC-N-38 Fab) VH: EVQLVESGGGLVQPGGSLRLSCAASGFNVYSSSIHWVRQAPGKGLEWVAYISSYSGYTYYADSVKGRFTISADTSKNTAYLQMNSLRAEDTAVYYCARTIYSSSYFYTWFIYGAAFDYWGQGTLVTVSS VL: DIQMTQSPSSLSASVGDRVTITCRASQSVSSAVAWYQQKPGKAPKLLIYSASSLYSGVPSRFSGSRSGTDFTLTISSLQPEDFATYYCQQSWMYPITFGQGTKVEIKR ; koff = 0.0005
